Tested on: SK-OV-3 ovarian
Protocol Summary: NCI tumour cell line growth inhibition, 48 h
Outcome Measure: TGI

// solved cases for TGI follow
| Compound | Measurement Target | Outcome Measure | Data Value |
| --- | --- | --- | --- |
| COC(=O)C(=NNc1ccccc1[N+](=O)[O-])C(=O)OC | SK-OV-3 ovarian | TGI | > 100 µM |
| CCOC(=O)C1=C(C)NC(C)=C(C(=O)OCCNC(=O)c2ccc(N=[N+]=[N-])cc2)C1c1ccccc1C(F)(F)F (stereo not given) | SK-OV-3 ovarian | TGI | 21.5 µM |
| CCNC(=O)Oc1ccc(/C(=C(\C)c2ccc(Cl)cc2)c2ccc(OCCN(CC)CC)cc2)cc1 | SK-OV-3 ovarian | TGI | 22.8 µM |
| CC(=O)OC1CC2C(C)(C)CCC[C@]2(C)C2=C1C(O)=C(C(C)C)C(=O)C2=O (stereo not given in full) | SK-OV-3 ovarian | TGI | > 28.4 µM |
| O=C1CC(C(=O)O)Cc2c(Br)ccc(O)c21 (stereo not given) | SK-OV-3 ovarian | TGI | > 100 µM |
| COc1ccc2nc3cc([N+](=O)[O-])ccc3c(NNc3ccc([N+](=O)[O-])cc3)c2c1 | SK-OV-3 ovarian | TGI | > 100 µM |

Lab note: `Cc1cc(I)cc(CNCCN2CCOCC2)c1O` gave TGI of > 100 µM

Input `COc1ccc(N2C(=O)C(=O)N(C)C2=O)c2ccccc12` . Output TGI: > 10 µM

Record `CSC1=C(SC)C(=O)c2cn(C)c(=O)cc2C1=O` . Reported TGI: 31.3 µM

Entry CC(NC(=O)C(N)CC(=O)O)C(=O)OC12CC3CC(CC(C3)C1)C2 (stereo not given) , TGI reported as > 100 µM

====

Test system: RXF 393 renal
Protocol Summary: NCI tumour cell line growth inhibition, 48 h
The label depends only on TGI: Satisfied if it is at least 20 µM, Not satisfied if it is smaller.

| Compound | Assigned Label |
| --- | --- |
| O=C(/C=C\c1ccsc1)c1ccccc1 | Not satisfied |
| COc1ccc2nc3cc([N+](=O)[O-])ccc3c(NNc3ccc([N+](=O)[O-])cc3)c2c1 | Satisfied |
| Cc1ccc(/C=C(/C#N)n2nnc3ncccc32)cc1 | Not satisfied |
| CON=C1C[C@]2(C[C@@H]3C[C@@H](C/C=C(\C)C[C@@H](C)/C=C/C=C4\CO[C@@H]5[C@H](O)C(C)=C[C@@H](C(=O)O3)[C@]45O)O2)O[C@H](/C(C)=C/C(C)C)[C@H]1C | Satisfied |
| CCC(CC)c1cc(N[C@H]2CC[C@H](N)C2)n2nccc2n1 | Not satisfied |
| O=C(CCC(=O)Nc1ccc(Cl)cc1)CC(=O)c1ccc2ccccc2c1 | Satisfied |

// query Could you tell me if the measured TGI of `Cc1ccc(C(=O)O)c(/C=C2\Cc3cc(C)cc(C)c3C2=O)c1` reaches 20 µM or more?
// result Satisfied

// query // inclusive: TGI at least 20 µM? input: `CN(CC(=O)O)CC(=O)O`
// result Satisfied

// query Determine whether measured TGI meets or exceeds 20 µM for CC(O)CC(=O)CO[C@H]1[C@H](O)[C@@H](O)[C@@H](O)[C@@H]2NC(=O)c3c(cc4c(c3O)OCO4)[C@H]21 (some centres not stated)
// result Not satisfied

// query In plain terms: is recorded TGI at least 20 µM for Cc1c2oc3c(C)cnc(C(=O)NC4C(=O)NC(C(C)C)C(=O)N5CCCC5C(=O)N(C)CC(=O)N(C)C(C(C)C)C(=O)OC4C)c3nc-2c(C(=O)NC2C(=O)NC(C(C)C)C(=O)N3CCCC3C(=O)N(C)CC(=O)N(C)C(C(C)C)C(=O)OC2C)c(N)c1=O (configuration not stated) ?
// result Not satisfied

// query Could you please find out whether OC(c1ccccc1)C1CC2C=CC1C2 (configuration not stated) has TGI that meets 20 µM or exceeds it?
// result Satisfied

// query # bool: TGI of O=C1N=CN=C2C=CC(Cl)=C(I)C12 (configuration not stated) >= 20 µM
// result Satisfied

// query Can `CNCCCn1c2c(c3ccc(Cl)cc3c1=O)C(=O)c1cc(OC)cnc1-2` be said to have TGI at or above 20 µM?
// result Not satisfied

====

System: COLO 205 colon
Protocol Summary: NCI tumour cell line growth inhibition, 48 h
Entries and their TGI

Consider the following illustrative entries.
| Compound | Measurement Target | TGI |
| --- | --- | --- |
| O=C(O)c1ccc(NCc2nc3ccccc3[nH]2)cc1 | COLO 205 colon | > 100 µM |
| COc1cc(N2CCN(C(C)C)CC2)ccc1Nc1nc(Nc2ccc(F)cc2C(=O)NCC(O)CO)c2cc[nH]c2n1 (centres undefined) | COLO 205 colon | > 9.9 µM |
| NC(=O)c1cc(I)ccc1NC(=O)/C=C/c1ccccc1Cl | COLO 205 colon | 5.7 µM |

We now examine a further compound.
Measured TGI, `O=C(O)CCNc1ncc2c(n1)-c1ccccc1OC2` : > 100 µM

====

Test system: NCI-H460 lung
Protocol Summary: NCI tumour cell line growth inhibition, 48 h
Outcome Measure: TGI

| Compound | Outcome Measure | Data Value |
| --- | --- | --- |
| C=CCOC1CC(n2cnc3c(N)ncnc32)OC1CO (centres undefined) | TGI | > 100 µM |
| CC[O-].CC[O-].COc1ccc(C(=O)[CH-]C(C)=O)cc1OC.COc1ccc(C(=O)[CH-]C(C)=O)cc1OC.[Ti+4] | TGI | > 100 µM |
| CN1C(=O)/C(=C2\S/C(=N\c3nnc(-c4ccccc4)o3)NC2=O)c2ccccc21 | TGI | > 100 µM |
| CC1=NN(c2cccc(Cl)c2)C2(C1=Cc1cccs1)C(Cl)C(=O)N2c1nc2ccccc2s1 (centres undefined) | TGI | 45.4 µM |

Now for a further compound.
The compound listed as CC(O)CC(=O)CO[C@H]1[C@H](O)[C@@H](O)[C@@H](O)[C@@H]2NC(=O)c3c(cc4c(c3O)OCO4)[C@H]21 (some centres undefined) shows TGI equal to 0.188 µM

====

Test system: DLD-1 colon
Protocol Summary: NCI tumour cell line growth inhibition, 48 h
Items are presented alongside their recorded TGI.

Take a look at these entries with their results.
| Compound | TGI |
| --- | --- |
| N#CC(C#N)=Cc1ccc(C(O)P(=O)(O)O)cc1 (stereo not drawn) | > 100 µM |
| COc1cccc(N2C(=O)/C(=C/c3ccc(N(CCC#N)CCC#N)cc3)N=C2c2cc([N+](=O)[O-])ccc2Cl)c1 | > 100 µM |

We now examine a further compound.
Value of TGI reported for the compound O=CC1CCC=CC1NC(=O)OCc1ccccc1 (stereo not drawn) is > 100 µM

====

Test system: NCI-H226 lung
Protocol Summary: NCI tumour cell line growth inhibition, 48 h
# TGI >= 80 µM gives y, anything below gives n

| Compound | Assigned Label |
| --- | --- |
| CC1(c2nc3ccccc3[nH]2)CCC(C#N)C(C)(C)O1 (stereo unspecified) | y |

Alright, here's another compound for you.
// query Form field: TGI at least 80 µM? Entry: `CN1CCN(Cc2ccc(NC(=O)c3cncc(C#Cc4c(N)ncc5c(F)cccc45)c3)cc2C(F)(F)F)CC1`
// result n

====

Tested on: HCT-15 colon
Protocol Summary: NCI tumour cell line growth inhibition, 48 h
Outcome Measure: GI50

| Compound | Measurement Target | Data Value |
| --- | --- | --- |
| COc1cc(-c2cc(-c3cccs3)c(C#N)c(N3CCOCC3)n2)cc(OC)c1OC | HCT-15 colon | 3090 nM |
| COc1ccc2nc3cc(Cl)ccc3c(NCCNCC(O)CO)c2c1 (stereo not given) | HCT-15 colon | 5360 nM |
| Nc1c(C(=O)c2ccc(C#CCN3CCOCC3)cc2)cnn1-c1ccc(F)cc1 | HCT-15 colon | > 25000 nM |
| COc1ccc(C2CC(c3ccccc3)=NN2C(=O)c2cc(OC)c(OC)c(OC)c2)cc1O (stereo not given) | HCT-15 colon | 352 nM |
| O=C(COc1cccc(/C=C2\COc3ccccc3C2=O)c1)c1ccccc1 | HCT-15 colon | 1850 nM |
| Cc1cncc(-c2nc(NCCc3c[nH]c4ccccc34)c3ncn(C(C)C)c3n2)c1 | HCT-15 colon | 1670 nM |
| O=C1Nc2ccc(O)cc2/C1=C\c1ccncc1 | HCT-15 colon | 11000 nM |
| CCOC(=O)Nc1ccc2nc(N3CCCCCC3)sc2c1 | HCT-15 colon | 840 nM |

Notebook: `[N-]=[N+]=NCCCn1c2c(c3ccc([N+](=O)[O-])cc3c1=O)C(=O)c1cc(I)ccc1-2` , GI50 read as 18500 nM

So, CC(=O)OC1CC2C(C)(C)CCC[C@]2(C)C2=C1C(O)=C(C(C)C)C(=O)C2=O (stereo not given in full) ? Its GI50 was 351 nM

FYI, the data here is from PubChem BioAssay (NCI).
